- measured.on: ERα (Homo sapiens (Human), UniProt P03372)
- Sequence (P03372 whole entry): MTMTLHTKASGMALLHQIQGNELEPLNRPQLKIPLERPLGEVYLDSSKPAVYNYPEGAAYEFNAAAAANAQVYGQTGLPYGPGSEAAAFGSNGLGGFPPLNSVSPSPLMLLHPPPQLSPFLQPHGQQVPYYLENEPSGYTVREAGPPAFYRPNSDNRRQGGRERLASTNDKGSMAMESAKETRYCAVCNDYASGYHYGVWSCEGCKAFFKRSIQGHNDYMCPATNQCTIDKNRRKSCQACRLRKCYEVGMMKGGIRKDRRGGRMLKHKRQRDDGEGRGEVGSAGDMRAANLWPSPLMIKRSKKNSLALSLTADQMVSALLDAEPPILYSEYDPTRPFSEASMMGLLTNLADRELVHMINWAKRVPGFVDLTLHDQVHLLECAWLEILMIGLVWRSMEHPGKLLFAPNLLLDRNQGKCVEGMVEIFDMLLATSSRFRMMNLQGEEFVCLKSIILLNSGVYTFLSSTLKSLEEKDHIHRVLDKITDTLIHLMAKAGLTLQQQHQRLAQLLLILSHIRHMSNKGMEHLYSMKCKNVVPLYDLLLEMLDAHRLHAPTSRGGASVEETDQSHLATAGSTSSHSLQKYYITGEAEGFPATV
- assay.procedure: ERα degradation assay in MCF7 cells
- Type: cell-based
- cond: 24 hours, % ER positive cells, read-out: Relative IC50
I'd appreciate it if you marked entries yes when DC50 is lower than 50 nM and no when it is not.

>  <molecule>
Oc1ccc2c3c(cnc2c1)-c1ccc(Cl)cc1OC3c1ccc(OCCN2CC(CF)C2)cc1 (single isomer, unassigned) [Example 3B]

>  <measured.on>
ERα (Homo sapiens (Human), UniProt P03372)

>  <category.label>
yes

$$$$
>  <molecule>
Oc1ccc2c3c(cnc2c1)-c1cccc(Cl)c1OC3c1ccc(OCCN2CC(CF)C2)cc1 (racemic) [Example 4]

>  <measured.on>
ERα (Homo sapiens (Human), UniProt P03372)

>  <category.label>
yes

$$$$
>  <molecule>
Oc1ccc2c3c(cnc2c1)-c1cccc(C(F)(F)F)c1OC3c1ccc(OCCN2CC(CF)C2)cc1 (racemic) [Example 2]

>  <measured.on>
ERα (Homo sapiens (Human), UniProt P03372)

>  <category.label>
no

$$$$
>  <molecule>
Oc1ccc2c3c(cnc2c1)-c1ccc(Cl)cc1OC3c1ccc(OCCN2CC(CF)C2)cc1 (racemic) [Example 3]

>  <measured.on>
ERα (Homo sapiens (Human), UniProt P03372)

>  <category.label>
yes

$$$$
>  <molecule>
Oc1ccc2c3c(cnc2c1)-c1cccc(C(F)(F)F)c1OC3c1ccc(OCCN2CC(CF)C2)cc1 (single isomer, unassigned) [Example 2B]

>  <measured.on>
ERα (Homo sapiens (Human), UniProt P03372)

>  <category.label>
no

$$$$
>  <molecule>
Oc1ccc2c3c(cnc2c1)-c1ccc(Cl)cc1OC3c1ccc(OCCN2CC(CF)C2)cc1 (single isomer, unassigned) [Example 3A]

>  <measured.on>
ERα (Homo sapiens (Human), UniProt P03372)

>  <category.label>
no

$$$$
>  <molecule>
Oc1ccc2c3c(cnc2c1)-c1cccc(Cl)c1OC3c1ccc(OCCN2CC(CF)C2)cc1 (single isomer, unassigned) [Example 4A]

>  <measured.on>
ERα (Homo sapiens (Human), UniProt P03372)

>  <category.label>
no

$$$$
>  <molecule>
Oc1ccc2c3c(cnc2c1)-c1ccc(F)cc1OC3c1ccc(OCCN2CC(CF)C2)cc1 (racemic) [Example 5]

>  <measured.on>
ERα (Homo sapiens (Human), UniProt P03372)

>  <category.label>
yes

$$$$
>  <molecule>
Cc1cccc2c1OC(c1ccc(OCCN3CC(CF)C3)cc1)c1c-2cnc2cc(O)ccc12 (single isomer, unassigned) [Example 8A]

>  <measured.on>
ERα (Homo sapiens (Human), UniProt P03372)

>  <category.label>
no

$$$$
